Hello, the source for this data is ChEMBL document CHEMBL5104181, in case you need it.

- System name: Carbonic anhydrase 12 (Homo sapiens, UniProt O43570)
- Sequence (O43570 whole entry): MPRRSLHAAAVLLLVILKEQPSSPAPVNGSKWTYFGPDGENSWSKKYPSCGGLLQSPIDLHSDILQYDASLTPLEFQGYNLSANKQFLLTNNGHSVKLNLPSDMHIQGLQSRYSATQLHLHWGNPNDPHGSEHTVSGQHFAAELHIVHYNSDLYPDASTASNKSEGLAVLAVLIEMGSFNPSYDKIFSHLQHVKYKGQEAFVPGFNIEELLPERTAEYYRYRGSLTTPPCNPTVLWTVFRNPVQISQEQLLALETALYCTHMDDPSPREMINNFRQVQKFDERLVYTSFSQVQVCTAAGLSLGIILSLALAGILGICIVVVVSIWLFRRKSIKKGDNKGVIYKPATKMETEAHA
- Assay method text: Inhibition of recombinant human CA12 pre-incubated for 15 mins by phenol red dye based stopped flow CO2 hydration assay
pKi: −log10 of the molar value.
The following molecules are listed with their measured pKi values.

| Smiles data | System name | pKi |
| --- | --- | --- |
| N#Cc1ccc(CN(CCc2ccc(S(N)(=O)=O)cc2)C(=O)c2ccc(-c3cssc3=S)cc2)cc1 | Carbonic anhydrase 12 (Homo sapiens, UniProt O43570) | 8.06 |
| NS(=O)(=O)c1ccc(CCN(Cc2csc3ccccc23)C(=O)c2ccc(-c3cssc3=S)cc2)cc1 | Carbonic anhydrase 12 (Homo sapiens, UniProt O43570) | 8.10 |
| NS(=O)(=O)c1ccc(CCN(CCc2ccccc2)C(=O)c2ccc(-c3cssc3=S)cc2)cc1 | Carbonic anhydrase 12 (Homo sapiens, UniProt O43570) | 8.02 |
| COc1ccc(CN(CCc2ccc(S(N)(=O)=O)cc2)C(=O)c2ccc(-c3cssc3=S)cc2)cc1 | Carbonic anhydrase 12 (Homo sapiens, UniProt O43570) | 7.12 |
